Attribute: melting point

{"compound": "CC(=N\\O)/C(C)=N/O", "melting point": "240 to 241 °C"}
{"compound": "CSCc1cc(C(=O)O)sc1C", "melting point": "135 to 137 °C"}
{"compound": "COCCNc1ccc(S(C)(=O)=O)cc1N", "melting point": "144 to 146 °C"}
{"compound": "O=C1CC(C(=O)O)C(C(=O)O)C1 (stereo unspecified)", "melting point": "186 to 188 °C"}
{"compound": "CCC1(C)NC(=O)NC1=O (stereo unspecified)", "melting point": "144 to 150 °C"}
{"compound": "COC(=O)c1cc(-c2ccccc2)nc2ccccc12", "melting point": "60 to 62 °C"}

----------
Attribute: melting point

{"molecule": "O=C1Nc2ccccc2C1O (stereo unspecified)", "melting point": "161 to 163 °C"}
{"molecule": "Cc1cc(C)c(C(=O)O)o1", "melting point": "145 to 147 °C"}
{"molecule": "N#CCC(=O)Nc1ncccn1", "melting point": "159 to 161 °C"}
{"molecule": "Cc1nc2cc(N)ccc2o1", "melting point": "72 to 74 °C"}
{"molecule": "O=[N+]([O-])C=Cc1cccc2ccccc12", "melting point": "87 to 89 °C"}
{"molecule": "CCC1Nc2ccc(C(=O)O)cc2NC1=O (stereo unspecified)", "melting point": "250 to 252 °C"}
{"molecule": "O=C(O)CSc1nncs1", "melting point": "157 to 159 °C"}
{"molecule": "Nc1cccnc1-n1ccnc1", "melting point": "215 to 217 °C"}
{"molecule": "Cc1cc([N+](=O)[O-])cc(S(=O)(=O)Cl)c1F", "melting point": "73 to 75 °C"}
{"molecule": "COc1ccc(C(=O)O)cn1", "melting point": "172 to 174 °C"}
{"molecule": "Cc1ccc(C)c(C(=O)c2cccc(S(C)(=O)=O)c2)c1", "melting point": "89 to 91 °C"}

----------
Attribute: melting point
assay-endpoint: melting point

{"compound": "COC(=O)c1cnc(-c2ccccc2)s1", "measurement": "107 to 109 °C"}
{"compound": "CCOc1ccccc1C(=O)NC(C(=O)O)C(C)C (configuration not stated)", "measurement": "127 to 129 °C"}
{"compound": "NC(=NO)c1cnn2cccnc12", "measurement": "177 to 179 °C"}
{"compound": "CC(C)CCNS(=O)(=O)Cc1ccc(N)cc1", "measurement": "111 to 113 °C"}
{"compound": "CC(=O)NCc1ccc(S(=O)(=O)NCC(=O)O)s1", "measurement": "192 to 194 °C"}
{"compound": "Cc1cccc(N)c1C(N)=O", "measurement": "141 to 143 °C"}
{"compound": "CC(C)(C)C(=O)NCc1ccc(C(=O)CCl)s1", "measurement": "102 to 104 °C"}
{"compound": "O=C(O)c1oc2ccccc2c1COc1ccccc1Cl", "measurement": "190 to 192 °C"}
{"compound": "CC1Oc2ccc(Br)cc2NC1=O (configuration not stated)", "measurement": "189 to 191 °C"}
{"compound": "Cc1nn(C)c2c1NC(=O)CO2", "measurement": "219 to 221 °C"}
{"compound": "O=C(O)CNC(=O)c1cccc(F)c1", "measurement": "153 to 155 °C"}
{"compound": "CC(C)N(C)S(=O)(=O)c1ccc(Cl)c(C(=O)O)c1", "measurement": "154 to 156 °C"}

----------
{"compound": "N#Cc1ccc(OCC2CO2)c([N+](=O)[O-])c1 (centres undefined)", "melting point": "85 to 87 °C"}
{"compound": "O=C(O)CNC1=NS(=O)(=O)c2ccccc21", "melting point": "160 to 162 °C"}
{"compound": "Nc1cccc(-c2cn(Cc3ccccc3)nn2)c1", "melting point": "139 to 141 °C"}
{"compound": "CC(=O)c1ccc(S(=O)(=O)N(C)CCCC(=O)O)cc1", "melting point": "80 to 82 °C"}

----------
Attribute: melting point

{"compound": "CSCCC(NS(=O)(=O)c1ccccc1)C(=O)O (stereo unspecified)", "melting point": "103 to 105 °C"}
{"compound": "COc1ccc(-n2c(S)nc3ccccc32)cc1", "melting point": "213 to 215 °C"}
{"compound": "O=C(Nc1ccc(Br)cn1)C1CCNCC1", "melting point": "144 to 146 °C"}
{"compound": "CCN1CCc2nc3ccccc3c(C(=O)O)c2C1", "melting point": "278 to 280 °C"}
{"compound": "NC(Cc1ccco1)C(=O)O (stereo unspecified)", "melting point": "179 to 181 °C"}
{"compound": "Cc1ccc(C)c(-c2cnnc(N)n2)c1", "melting point": "179 to 181 °C"}
{"compound": "CC(C)(C)n1cc(N)cn1", "melting point": "56 to 58 °C"}
{"compound": "Nc1ccc(Cl)c(C(=O)NC2CCCCC2)c1", "melting point": "159 to 161 °C"}
{"compound": "CS(=O)(=O)NCCBr", "melting point": "44 to 46 °C"}
{"compound": "N#Cc1ccccc1Oc1ccccc1C(=O)O", "melting point": "147 to 149 °C"}
{"compound": "O=c1ccc(-n2cncn2)n[nH]1", "melting point": "240 to 242 °C"}
{"compound": "NS(=O)(=O)c1ccc2c(c1)CCCN2", "melting point": "161 to 163 °C"}
{"compound": "CCn1nc(C)c(S(=O)(=O)Cl)c1C", "melting point": "34 to 36 °C"}
{"compound": "CC(C)(C)OC(=O)NCCNS(=O)(=O)c1cccc(N)c1", "melting point": "148 to 150 °C"}
{"compound": "Cc1nc(-c2ccccc2F)sc1C(C)O (stereo unspecified)", "melting point": "79 to 81 °C"}
{"compound": "CCNc1c(N)n(CC)c(=O)[nH]c1=O", "melting point": "210 to 212 °C"}

----------
Attribute: melting point
assay-endpoint: melting point

{"molecule": "NNC(=O)C(=O)N1CCCC1", "measurement": "117 to 119 °C"}
{"molecule": "CC(C)(CO)NCCO", "measurement": "73 to 75 °C"}
{"molecule": "Nc1nc(-c2cccs2)cs1", "measurement": "136 to 138 °C"}
{"molecule": "COc1ccc(N2CCC(N)CC2)cc1", "measurement": "50 to 52 °C"}
{"molecule": "Cc1ccc(/C=C/C(=O)O)cc1Cl", "measurement": "194 to 196 °C"}
{"molecule": "NC(=O)CNC(=O)c1cccc(O)c1", "measurement": "179 to 181 °C"}
{"molecule": "O=C(CCl)c1sccc1Br", "measurement": "75 to 77 °C"}
{"molecule": "Cc1cc(C)c([N+](=O)[O-])c(C)c1C(=O)O", "measurement": "169 to 171 °C"}
{"molecule": "COc1cc(N)cc(Br)c1", "measurement": "39 to 41 °C"}
{"molecule": "CC(C)c1nc(S(=O)(=O)Cl)c[nH]1", "measurement": "162 to 164 °C"}
{"molecule": "CCCS(=O)(=O)NC(C)C(=O)O (stereo not given)", "measurement": "64 to 66 °C"}
{"molecule": "O=C(O)CCCNc1ccccc1[N+](=O)[O-]", "measurement": "115 to 119 °C"}
{"molecule": "O=C(O)C1CCCN1S(=O)(=O)c1ccc(Br)cc1 (stereo not given)", "measurement": "103 to 105 °C"}
{"molecule": "Cc1ccc(-c2cc(CS(=O)(=O)Cl)on2)cc1", "measurement": "119 to 121 °C"}
{"molecule": "CC(=O)c1cc(CCC(=O)O)oc1C", "measurement": "90 to 95 °C"}
{"molecule": "CCCOc1ccc(C(=O)O)cc1OC", "measurement": "182 to 184 °C"}
{"molecule": "COC(=O)C(=O)CC(=O)c1ccc(Cl)cc1Cl", "measurement": "118 to 120 °C"}
{"molecule": "ClCc1nnc(-c2cccc(Cl)c2)o1", "measurement": "76 to 78 °C"}
{"molecule": "CN1CCC(C(=O)O)c2ccccc21 (stereo not given)", "measurement": "99 to 101 °C"}
{"molecule": "Cc1sc2nc(-c3ccccn3)nc(Cl)c2c1-c1ccccc1", "measurement": "166 to 168 °C"}
{"molecule": "CC(C)(C)c1ccc(CCC(=O)O)cc1", "measurement": "105 to 107 °C"}
{"molecule": "CS(=O)(=O)c1cccc(C(=O)c2ccc(Cl)cc2)c1", "measurement": "107 to 109 °C"}
{"molecule": "Cc1ccc2cc(C(=O)O)c(C)nc2c1", "measurement": "197 to 199 °C"}
{"molecule": "CC(C)NS(=O)(=O)c1ccc(NN)nc1", "measurement": "141 to 143 °C"}
{"molecule": "COC(=O)CCCOc1ccc(N)c2ccccc12", "measurement": "69 to 71 °C"}
{"molecule": "O=C(O)c1cc(-c2ccc(F)cc2)nc2ccccc12", "measurement": "193 to 197 °C"}
{"molecule": "O=Cc1cc(Cl)c2c(c1)OCCO2", "measurement": "79 to 83 °C"}
{"molecule": "O=C(O)CCNC(=O)c1ccoc1", "measurement": "154 to 156 °C"}
{"molecule": "O=C1CCCN1c1cccc(Br)c1", "measurement": "69 to 71 °C"}
{"molecule": "Cn1cc(C(=O)O)c(C(C)(C)C)n1", "measurement": "140 to 142 °C"}
{"molecule": "CCOc1ccccc1C(N)(C(=O)O)C(F)(F)F (stereo not given)", "measurement": "119 to 121 °C"}
{"molecule": "CC(Oc1cccnc1)C(=O)O (stereo not given)", "measurement": "126 to 128 °C"}
{"molecule": "Cc1nn(-c2ccccc2)c(Cl)c1C(=O)O", "measurement": "232 to 234 °C"}
{"molecule": "CC(C)S(=O)(=O)c1ccc(CC(=O)O)cc1", "measurement": "146 to 148 °C"}
{"molecule": "O=C(O)c1cccc(Br)c1I", "measurement": "139 to 141 °C"}
{"molecule": "Cc1nc(N)sc1Cc1ccc(F)cc1", "measurement": "94 to 96 °C"}
{"molecule": "Cc1nn(C(C)(C)C)c2nc(C3CC3)cc(C(=O)O)c12", "measurement": "172 to 174 °C"}
{"molecule": "CCC(CC)n1nc(C(=O)O)cc1C", "measurement": "110 to 112 °C"}
{"molecule": "O=C(c1cc(F)ccc1F)c1ccccc1Cl", "measurement": "67 to 69 °C"}
{"molecule": "O=C(O)C1=CCCSC1", "measurement": "103 to 105 °C"}
{"molecule": "N#Cc1ccc(=O)[nH]c1", "measurement": "253 to 255 °C"}
{"molecule": "Cc1cc(F)c(N)c(I)c1", "measurement": "32 to 34 °C"}
{"molecule": "COC(=O)c1ccc(F)c(N)c1", "measurement": "67 to 69 °C"}
{"molecule": "O=Cc1ccc(OCc2occc2C(=O)O)cc1", "measurement": "145 to 147 °C"}
{"molecule": "N=C1N=C2C=CC(Br)=CN2Cc2ccccc21", "measurement": "178 to 180 °C"}
